- procedure.details: Pharmacokinetic experiment on mice (iv and ig)
- Assay type: in vivo
- measurement.setup: mouse, plasma; ICR Mice, iv, 1.00 mg/kg; read-out: Peak plasma concentration Cmax
endpoint.name: Cmax
Number plus unit, in that order.

Input line: Query: Cmax; subject: Cc1nn(C2CCC(=O)NC2=O)c2cccc(OC3CCN(C[C@H]4CC[C@H](n5cc6cc(NC(=O)c7cnn8cccnc78)c(N7CCOCC7)cc6n5)CC4)CC3)c12 (stereo partly shown)
Output line: 81 ng/mL

====

- procedure.details: Pharmacokinetic experiment on mice (iv and ig)
- Format: in vivo
- measurement.setup: mouse, plasma, po; ICR Mice, ig 5.00 mg/kg vs iv 1.00 mg/kg; read-out: Oral bioavailability Fobs (%)
endpoint.name: bioavailability (%)
Your answer is read as %, so omit the unit and give the number.

Input line: Query: bioavailability; subject: Cc1nn(C2CCC(=O)NC2=O)c2cccc(OC3CCN(C[C@H]4CC[C@H](n5cc6cc(NC(=O)c7cnn8cccnc78)c(N7CCOCC7)cc6n5)CC4)CC3)c12 (stereo partly shown)
Output line: 91.9

====

I'd be grateful if you could share measured AUC(0-inf) for these entries.
- procedure.details: Pharmacokinetic experiment on mice (iv and ig)
- Format: in vivo
- measurement.setup: mouse, plasma; BALB/c Mice, iv, 1.00 mg/kg
Your answer is read as µg·h/mL, so omit the unit and give the number.

Input line: Query: AUC(0-inf); subject: Cc1nn(C2CCC(=O)NC2=O)c2cccc(N3CCC4(CC3)CN(C[C@H]3CC[C@H](n5cc6cc(NC(=O)c7cnn8cccnc78)c(N(C)C)cc6n5)CC3)C4)c12 (stereo partly shown) [TM-101]
Output line: 3.52

Input line: Thanks! And Cc1nn(C2CCC(=O)NC2=O)c2cccc(N3CC4CN(C[C@H]5CC[C@H](n6cc7cc(NC(=O)c8cnn9cccnc89)c(N8CCOCC8)cc7n6)CC5)CC4C3)c12 (stereo partly shown) [TM-57] ?
Output line: 0.795

Input line: Thanks! And Cc1nn(C2CCC(=O)NC2=O)c2cncc(N3CCN(C[C@H]4CC[C@H](n5cc6cc(NC(=O)c7cnn8cccnc78)c(N7CCO[C@H](C)C7)cc6n5)CC4)CC3)c12 (stereo partly shown) [TM-109] ?
Output line: 3.22

Input line: Thanks! And Cc1nn(C2CCC(=O)NC2=O)c2cccc(N3CCN(C[C@H]4CC[C@H](n5cc6cc(NC(=O)c7cnn8cccnc78)c(N7CCOCC7)cc6n5)CC4)CC3)c12 (stereo partly shown) [TM-33] ?
Output line: 104

====

I'd be grateful if you could share measured DC50 for these entries.
- system.tested: IRAK4 protein (Homo sapiens, UniProt Q9NWZ3)
- Construct: Effects of Compounds on IRAK4 Protein Degradation in THP1 Cells; endogenous in cells; host or cells: THP-1 cells
- Sequence (Q9NWZ3 whole entry): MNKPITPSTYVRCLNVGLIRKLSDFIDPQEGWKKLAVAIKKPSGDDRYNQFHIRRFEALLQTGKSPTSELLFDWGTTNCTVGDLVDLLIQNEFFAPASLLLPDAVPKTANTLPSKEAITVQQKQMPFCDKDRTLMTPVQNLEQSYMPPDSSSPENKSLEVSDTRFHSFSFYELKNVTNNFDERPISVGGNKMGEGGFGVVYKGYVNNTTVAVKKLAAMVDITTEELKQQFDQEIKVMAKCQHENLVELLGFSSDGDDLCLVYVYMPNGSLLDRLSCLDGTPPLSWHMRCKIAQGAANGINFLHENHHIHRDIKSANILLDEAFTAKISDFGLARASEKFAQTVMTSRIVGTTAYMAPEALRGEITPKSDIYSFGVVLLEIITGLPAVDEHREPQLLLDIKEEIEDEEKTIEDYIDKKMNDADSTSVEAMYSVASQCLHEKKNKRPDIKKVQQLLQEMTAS
- procedure.details: IRAK4 protein degradation in THP1 cells (Western blot)
- Type: cell-based
- measurement.setup: 24 h
Your answer is read as nM, so omit the unit and give the number.

Input line: Query: DC50; subject: Cc1nn(C2CCC(=O)NC2=O)c2cncc(N3CCN(C[C@H]4CC[C@H](n5cc6cc(NC(=O)c7cnn8cccnc78)c(N7CCO[C@H](C)C7)cc6n5)CC4)CC3)c12 (stereo partly drawn)
Output line: 4.67

Input line: Thanks! And Cc1nn(C2CCC(=O)NC2=O)c2cccc(N3CC4CN(C[C@H]5CC[C@H](n6cc7cc(NC(=O)c8cnn9cccnc89)c(N8CCO[C@H](C)C8)cc7n6)CC5)CC4C3)c12 (stereo partly drawn) ?
Output line: 4.81
